Give melting point for every item shown.

Query: Requested read-out: melting point. Entry: CC(C)Cc1nc2c(N)nc3c(c2n1CC(C)C)CCCC3
Result: 160 to 161 °C

Query: Requested read-out: melting point. Entry: CCOC(=O)c1cc(=O)cc(-c2ccc(S(C)(=O)=O)cc2)o1
Result: 176 to 179 °C

Query: Requested read-out: melting point. Entry: COC(=O)N(C)CC#CCn1ccnc1
Result: 113 to 115 °C

Query: Requested read-out: melting point. Entry: CCCCCCc1ccc(-c2cnn(C(C)(C)Cc3ccc(C)cc3)c2O)cc1
Result: 149 to 151 °C

Query: Requested read-out: melting point. Entry: C(=C(c1ccccc1)c1ccccc1)P(c1ccccc1)c1ccccc1
Result: 116 to 118 °C

Query: Requested read-out: melting point. Entry: Cc1cc(CN2CCN(C)CC2)cc2c1Cc1c(-c3ccsc3)n[nH]c1-2
Result: 235 to 236 °C

Query: Requested read-out: melting point. Entry: COc1cc2c(cc1OC)N(C(=O)c1ccc(-c3ccccc3C(F)(F)F)c(C)c1)Cc1cccn1C2
Result: 187 to 188 °C

Query: Requested read-out: melting point. Entry: CN1CCC2(CC1=O)c1ccccc1Oc1ccccc12
Result: 158 to 159 °C

Query: Requested read-out: melting point. Entry: O=C1C(O)=C(c2ccccc2)CN1Cc1ccco1
Result: 222 to 226 °C

Query: Requested read-out: melting point. Entry: COC(=O)c1cc(OCc2cn(-c3ccc(C(F)(F)F)cn3)nc2C)nn1C
Result: 130 to 131 °C

Query: Requested read-out: melting point. Entry: NNc1ccnc2c(NC(=O)c3c(Cl)cccc3Cl)cc(C(F)(F)F)cc12
Result: 228 to 232 °C

Query: Requested read-out: melting point. Entry: O=C1N(Cc2cnccn2)c2ccccc2C12COc1cc3c(cc12)CCO3 (configuration not stated)
Result: 143 to 144 °C

Query: Requested read-out: melting point. Entry: O=C(NCc1ccccc1)c1nn(-c2ccc(Cl)cc2)c2c1C1CCC2C1 (configuration not stated)
Result: 112 to 115 °C

Query: Requested read-out: melting point. Entry: COc1c(O)c(C=O)cc2ccoc12
Result: 60 to 62 °C

Query: Requested read-out: melting point. Entry: CN(C)C(=O)c1ccc(CCC(=O)c2cccc(OCc3ccc4ccc(Cl)cc4n3)c2)o1
Result: 129 to 131 °C

Query: Requested read-out: melting point. Entry: C=CCn1nc(C(=O)NC)cc1OCCCN1CCN(c2cccc3sccc23)CC1
Result: 138 to 140 °C

Query: Requested read-out: melting point. Entry: Cc1ccc2c(NCc3ccc(NC(=O)c4ccc(F)cc4)cc3)nc(N3CCN[C@@H](C)C3)nc2c1
Result: 200 to 202 °C

The origin of these recorded values is a melting point compilation (Tetko et al.; mined from patent text by program, amines drawn as free bases though some values may be those of a salt).
